# Tested on: MCF7
# protocolNotes: Cytotoxicity against human MCF7 cells after 3 days by MTT assay
# Assay type: functional
# testSettings: MCF7, 72 h, read-out: ED50 (the source's name)
Checkbox rule: EC50 lower than 8 µg/mL = satisfied; EC50 not lower than 8 µg/mL = not satisfied.

Q. API: query returns whether the molecule falls strictly under 8 µg/mL in EC50. Query: C=C(CC[C@@H](C)[C@H]1CC[C@H]2C3=C(C(=O)C[C@]12C)[C@@]1(C)CC[C@@H](O)[C@@H](C)[C@@H]1CC3=O)C(C)C(=O)OC (stereo partly specified)
A. satisfied

Q. API: query returns whether the molecule falls strictly under 8 µg/mL in EC50. Query: C=C(CC[C@@H](C)[C@H]1CC[C@H]2C3=C(C(=O)C[C@]12C)[C@@]1(C)CCC(=O)[C@@H](C)[C@@H]1C[C@@H]3O)C(C)C(=O)O (stereo partly specified)
A. not satisfied

Q. API: query returns whether the molecule falls strictly under 8 µg/mL in EC50. Query: C=C(CC[C@@H](C)[C@H]1CC[C@H]2C3=C(C(=O)C[C@]12C)[C@@]1(C)CCC(=O)[C@@H](C)[C@@H]1CC3)C(C)C(=O)OC (stereo partly specified) [METHYLANTCINATE A]
A. not satisfied

Q. API: query returns whether the molecule falls strictly under 8 µg/mL in EC50. Query: C=C(CC[C@@H](C)[C@H]1CC[C@H]2C3=C(C(=O)C[C@]12C)[C@@]1(C)CCC(=O)[C@@H](C)[C@@H]1CC3)C(C)C(=O)O (stereo partly specified)
A. not satisfied

Q. API: query returns whether the molecule falls strictly under 8 µg/mL in EC50. Query: C=C(CC[C@@H](C)[C@H]1CC[C@@H]2C3=C(C(=O)C[C@@]21C)[C@@]1(C)CCC(=O)[C@@H](C)[C@@H]1CC3)C(C)C(=O)OC (stereo partly specified)
A. not satisfied

Q. API: query returns whether the molecule falls strictly under 8 µg/mL in EC50. Query: C=C(CC[C@@H](C)[C@H]1CC[C@H]2C3=C(C(=O)C[C@]12C)[C@@]1(C)CC[C@@H](O)[C@@H](C)[C@@H]1CC3=O)C(C)C(=O)O (stereo partly specified)
A. not satisfied

Q. API: query returns whether the molecule falls strictly under 8 µg/mL in EC50. Query: C=C(C)C#Cc1c(OC)cc(OC)c(OC)c1C
A. satisfied

Q. API: query returns whether the molecule falls strictly under 8 µg/mL in EC50. Query: C=C(CC[C@@H](C)[C@H]1CC[C@H]2C3=C(C(=O)[C@H](O)[C@]12C)[C@@]1(C)CC[C@@H](O)[C@@H](C)[C@@H]1CC3=O)C(C)C(=O)O (stereo partly specified)
A. not satisfied

Q. API: query returns whether the molecule falls strictly under 8 µg/mL in EC50. Query: C=C(CC[C@@H](C)[C@H]1CC[C@H]2C3=C(C(=O)C[C@]12C)[C@@]1(C)CCC(=O)[C@@H](C)[C@@H]1CC3=O)C(C)C(=O)O (stereo partly specified)
A. not satisfied

Q. API: query returns whether the molecule falls strictly under 8 µg/mL in EC50. Query: C=C(CC[C@@H](C)[C@H]1CC[C@H]2C3=C(C(=O)C[C@]12C)[C@@]1(C)CC[C@@H](O)[C@](C)(O)[C@@H]1C[C@@H]3O)C(C)C(=O)O (stereo partly specified)
A. not satisfied

FYI, the data here is from ChEMBL document CHEMBL1641547.
